measurementTarget: human GPR17 short isoform (Homo sapiens (Human), UniProt Q13304)
Sequence (Q13304 29-367): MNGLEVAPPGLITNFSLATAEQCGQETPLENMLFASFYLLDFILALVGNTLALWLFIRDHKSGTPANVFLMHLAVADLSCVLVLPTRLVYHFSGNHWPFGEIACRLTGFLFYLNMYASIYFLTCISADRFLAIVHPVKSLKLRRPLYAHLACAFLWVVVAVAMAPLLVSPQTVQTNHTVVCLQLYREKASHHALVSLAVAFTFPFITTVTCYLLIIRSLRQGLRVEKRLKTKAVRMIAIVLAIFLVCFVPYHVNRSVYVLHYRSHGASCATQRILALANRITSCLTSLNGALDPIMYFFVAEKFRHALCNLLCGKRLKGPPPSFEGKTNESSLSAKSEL
assayText: GPR17 cAMP assay (hGPR17 cAMP, antagonist mode against EC80 of MDL29,951)
condition: CHO-K1 cells stably expressing human GPR17 short isoform; EC80 of agonist MDL29,951; forskolin 15 μM
observationType: IC50
Kindly report the value followed by its unit.

Entry COc1nc(NS(=O)(=O)c2c[nH]c3cc(Cl)ccc23)nc(OC)c1OC(F)F [Example 52] has what IC50? 32 nM

How about this molecule: COc1nc(NS(=O)(=O)c2c[nH]c3cc(Cl)ccc23)ncc1OC1CC1 [Example 38] 2680 nM

How about this molecule: COc1nc(NS(=O)(=O)c2csc3cc(Cl)ccc23)ncc1CCC(F)F [Example 155] 116 nM

How about this molecule: COc1nc(NS(=O)(=O)c2c[nH]c3c(F)c(Br)ccc23)nc(OC)c1OC(F)F [Example 241] 21 nM

How about this molecule: COc1cnc(NS(=O)(=O)c2c[nH]c3cc(Cl)ccc23)nc1Cl [Example 173] 877 nM

How about this molecule: COc1nc(NS(=O)(=O)c2c[nH]c3nc(Br)ccc23)nc(OC)c1C [Example 160] 11 nM

How about this molecule: COCCc1cnc(NS(=O)(=O)c2c[nH]c3cc(Cl)ccc23)nc1OC [Example 49] 809 nM

How about this molecule: COc1nc(NS(=O)(=O)c2c[nH]c3nc(Br)ccc23)ncc1CCC(F)F [Example 201] 30 nM

How about this molecule: COc1nc(NS(=O)(=O)c2c[nH]c3c(F)c(Br)ccc23)nc(OC)c1OCC(F)F [Example 242] 43 nM

How about this molecule: COc1nc(NS(=O)(=O)c2c[nH]c3c2ccc2cccnc23)nc(OC)c1CC(F)F [Example 169] 20 nM

---

Parameter log10 IC50: see the listing below.
measurementTarget: human GPR17 short isoform (Homo sapiens (Human))
assayText: GPR17 cAMP assay (hGPR17 cAMP, antagonist mode against EC80 of MDL29,951)
condition: CHO-K1 cells stably expressing human GPR17 short isoform; EC80 of agonist MDL29,951; forskolin 15 μM
Source text: GPR17 cAMP Assay Protocol: […] Changes in intracellular cyclic adenosine monophosphate (cAMP) levels were quantified using the Nano-TRF Detection Assay kit (Roche Diagnostics, Cat. No. 05214386001). This assay allows for direct cAMP quantification in a homogeneous solution, cAMP is detected based on time-resolved fluorescence energy transfer (TR-FRET) and competitive binding of ruthenylated cAMP and endogenous cAMP to an anti-cAMP monoclonal antibody labeled with AlexaFluor-700. […]
Kindly note that the scale is log10 and the underlying IC50 is in nM.

{"compound": "COc1nc(NS(=O)(=O)c2c[nH]c3c(OC(F)F)c(Cl)ccc23)ncc1CC(F)F", "log10 IC50": 1.45}

Entry `COc1nc(NS(=O)(=O)c2c[nH]c3cc(C(F)F)ccc23)ncc1CC(F)F` has what log10 IC50? 1.73

How about this compound: COc1nc(NS(=O)(=O)c2c[nH]c3nc(Br)ccc23)nc(OC)c1CC(F)CF (stereo not drawn) 1.76

How about this compound: `COc1nc(NS(=O)(=O)c2c[nH]c3cc(Cl)ccc23)nc(OC)c1C1CC1` 1.15

How about this compound: `COc1ccc2c(S(=O)(=O)Nc3nc(OC)c(C)c(OC)n3)c[nH]c2c1` 2.11

How about this compound: COc1nc(NS(=O)(=O)c2c[nH]c3nc(Cl)ccc23)nc(OC)c1CC(F)CF (stereo not drawn) 1.84

How about this compound: `COc1nc(NS(=O)(=O)c2c[nH]c3c(F)c(Br)ccc23)ncc1CC(F)F` 1.52

How about this compound: `COc1nc(NS(=O)(=O)c2csc3nc(Br)ccc23)nc(OC)c1CC(F)F` 1.59

How about this compound: `COc1nc(NS(=O)(=O)c2c[nH]c3c(Cl)c(F)ccc23)ncc1CC(F)F` 2.59
